Target: IDH2 R172K (Homo sapiens, UniProt P48735, R172K)
Sequence (P48735 40-452 R172K): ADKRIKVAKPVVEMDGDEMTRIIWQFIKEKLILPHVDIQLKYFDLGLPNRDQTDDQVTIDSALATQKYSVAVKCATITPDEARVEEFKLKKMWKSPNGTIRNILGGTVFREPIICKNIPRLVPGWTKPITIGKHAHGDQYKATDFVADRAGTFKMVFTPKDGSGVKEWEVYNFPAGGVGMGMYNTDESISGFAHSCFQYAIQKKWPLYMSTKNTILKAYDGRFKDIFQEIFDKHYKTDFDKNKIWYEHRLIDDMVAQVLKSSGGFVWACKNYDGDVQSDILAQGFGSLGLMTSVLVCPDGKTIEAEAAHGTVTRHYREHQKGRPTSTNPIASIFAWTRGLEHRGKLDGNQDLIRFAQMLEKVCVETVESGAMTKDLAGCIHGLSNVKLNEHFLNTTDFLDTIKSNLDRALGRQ
Assay: IDH2 R172K enzymatic assay (NADPH cofactor depletion, diaphorase/resazurin readout)
Details: read-out: Enz R172K
Property: IC50

molecule=COc1ncccc1-c1nc(Nc2ccnc(C(F)(F)F)c2)nc(NC(C)C)n1 value="100 to 1000 nM"
molecule=c1ccc(-c2nc(NCC3CCC3)nc(Nc3ccncc3)n2)cc1 value="100 to 1000 nM"
molecule=CC(C)(C)CNc1nc(Nc2ccnc(C(F)(F)F)c2)nc(-c2nccc(C(F)(F)F)n2)n1 value="< 100 nM"
molecule=CC(C)Nc1nc(Nc2ccc(O)cc2)nc(-c2ccccc2)n1 value="> 10000 nM"
molecule=CC(C)Nc1nc(Nc2cncc(F)c2)nc(-c2cccc(C(F)(F)F)n2)n1 value="< 100 nM"
molecule=CC(C)Nc1nc(Nc2cc(F)cc(F)c2)nc(-c2nc(F)ccc2F)n1 value="< 100 nM"
molecule="c1ccc(Nc2nc(NCC3CCO3)nc(-c3ccccc3)n2)cc1 (stereo not drawn)" value="1000 to 10000 nM"
molecule="Fc1cncc(Nc2nc(NC3C4COCC43)nc(-c3cccc(Cl)n3)n2)c1 (stereo not drawn)" value="100 to 1000 nM"
molecule=CC(C)Nc1nc(Nc2cccc(C(C)(C)O)c2)nc(-c2cccc(C(F)(F)F)n2)n1 value="< 100 nM"
